test system: MDA-MB-231; test: NCI tumour cell line growth inhibition, 48 h
The source made the active and inactive calls. Rule as the data show it: active = GI50 up to about 1.1 µM and inactive = higher.
// one of active, inactive, no free text

Solved cases below.
{"columns": ["MOLECULE", "LABEL"],
 "data": [
  ["Nc1nc(N)c(N=Nc2ccc([As](=O)(O)O)c(O)c2)c(N)n1", "inactive"],
  ["COc1cc(/C=C2\\N=C(c3ccccc3)N(c3nc4c(Cl)cc(Cl)cc4s3)C2=O)ccc1O", "inactive"],
  ["COC1(C)OC[C@@]2(C)OC(C)C1(C)C2O[Si](C(C)C)(C(C)C)C(C)C (stereo partly specified)", "inactive"],
  ["Nc1cccc(S(=O)(=O)Nc2nnc(S(N)(=O)=O)s2)c1", "inactive"],
  ["CCCn1c2ccccc2c2ccc3c(c21)C(=O)C=CC3=O", "inactive"],
  ["CCOC(=O)c1nc2ccccc2nc1Oc1ccc(F)cc1", "inactive"],
  ["O=C(Cc1ccccc1)NN1C(=O)/C(=C\\c2cccc([N+](=O)[O-])c2)S/C1=N\\c1ccccc1", "inactive"],
  ["CSc1c(C#N)c(S)n(-c2ccc(Cl)cc2)c(=O)c1C#N", "inactive"]
]}

Here's the next entry for you.
Incoming: Per the records of this test, what outcome belongs to CC(C)/C(Cl)=N\OC(=O)Nc1ccc(F)cc1 ?
Outgoing: inactive

###

test system: MOLT-4; experiment: NCI tumour cell line growth inhibition, 48 h
Calls of active or inactive are those of the source. Rule as the data show it: active = GI50 up to about 1.1 µM and inactive = higher.
The compounds listed here are annotated with their GI50.

These solved cases illustrate the format of a correct answer.
{"columns": ["COMPOUND", "ASSAY_ENDPOINT", "RESULT"],
 "data": [
  ["CCC(C)C(NC(=O)C(CCCC[N+](=N)N)NC(=O)C(CCCC[N+](=N)N)NC(=O)c1ccc(OC)cc1)C(=O)NC(CCCC[N+](=N)N)C(=O)N1CCCC1C(=O)NC(CCCCN)C(=O)NC(CC(C)C)C(N)=O (stereo not given)", "GI50", "> 100 µM (inactive)"],
  ["C/C=C1/CN2CCC34C5=CC(=O)C(c6cc7c(cc6OC)N(C)C6=C(C(=O)OC)CC8(CC)CCCN9CCC67C98)=CC5=NC23CCC1C4C(=O)OC (stereo not given)", "GI50", "2.45 µM (inactive)"],
  ["CC(C)(C)OP(=O)(OC(C)(C)C)C(O)c1ccc(/C=C(\\C#N)C(N)=O)cc1 (stereo not given)", "GI50", "> 100 µM (inactive)"],
  ["O=C1C=C2CO[C@H]3OC[C@H](O)[C@@H]1[C@@H]23", "GI50", "28.9 µM (inactive)"],
  ["Cc1ccc2c(c1)C(C1Cc3c(C)cccc3C1=O)OC2=O (stereo not given)", "GI50", "> 100 µM (inactive)"],
  ["CC1(C)C(=O)OC(n2cc(F)c(=O)[nH]c2=O)C1=O (stereo not given)", "GI50", "> 100 µM (inactive)"]
]}

Incoming: // map CCOC(=O)NC(C(C(=O)OCC)C(=O)OCC)(C(F)(F)F)C(F)(F)F to recorded GI50 (system: MOLT-4)
Outgoing: > 100 µM (inactive)

Incoming: // map N#C/C(=C\c1cccc(Br)c1)c1nc2ccccc2c(=O)[nH]1 to recorded GI50 (system: MOLT-4)
Outgoing: > 100 µM (inactive)

Incoming: // map Cc1ccc(S(=O)(=O)N/N=C2\CC3C4CCC3C2C4)cc1 (stereo not given) to recorded GI50 (system: MOLT-4)
Outgoing: > 100 µM (inactive)

Incoming: // map C=CC[P@@]1(=O)O[C@H](c2ccccc2)C(C)N1C(C)C (stereo not given in full) to recorded GI50 (system: MOLT-4)
Outgoing: > 100 µM (inactive)

Incoming: // map O=C(CSc1nc2ccc(I)cc2c(=O)n1Cc1ccccc1)NN1C(=O)CSC1c1ccccc1 (stereo not given) to recorded GI50 (system: MOLT-4)
Outgoing: 29.2 µM (inactive)

Incoming: // map O=C1OC2(CCCCC2)C(Oc2ccc(Cl)cc2)=C1F to recorded GI50 (system: MOLT-4)
Outgoing: 20.3 µM (inactive)

Incoming: // map Cc1cc(S(=O)(=O)Nc2nc3ccccc3n2-c2ccccc2)c(S)cc1Cl to recorded GI50 (system: MOLT-4)
Outgoing: > 100 µM (inactive)

Incoming: // map Cc1ccc(/N=N/C(C2=NC(=O)CS2)c2nc3ccccc3[nH]2)cc1 (stereo not given) to recorded GI50 (system: MOLT-4)
Outgoing: 20.7 µM (inactive)

Incoming: // map Clc1cc(OC23CC4CC(CC(C4)C2)C3)nc(Cl)n1 to recorded GI50 (system: MOLT-4)
Outgoing: 34 µM (inactive)

Incoming: // map C#CCCCCC#Cc1ccccc1C(=O)OC to recorded GI50 (system: MOLT-4)
Outgoing: 12.7 µM (inactive)

Incoming: // map O=C(O)CC[C@H](NC(=O)c1ccc(-n2nc3ccc(=O)cc-3[nH]c2=O)cc1)C(=O)O to recorded GI50 (system: MOLT-4)
Outgoing: > 100 µM (inactive)

Incoming: // map CSc1ccc(/C=C/c2ccnc3ccccc23)cc1 to recorded GI50 (system: MOLT-4)
Outgoing: 12.2 µM (inactive)

Incoming: // map CN(/N=C/C=N/N(C)C1=NCCCCN1)C1=NCCCCN1 to recorded GI50 (system: MOLT-4)
Outgoing: > 100 µM (inactive)

Incoming: // map Cc1ccc2sc3ccc(N)cc3c(=O)c2c1 to recorded GI50 (system: MOLT-4)
Outgoing: 11.4 µM (inactive)

Data provenance is ChEMBL document CHEMBL1201862.
